organism: Rattus norvegicus; test: DrugMatrix - Regimen: Daily Repeat; assay type: toxicity, organism-based, Sprague-Dawley; parameters: regimen Daily Repeat, gender Male, age 6-8 weeks; conditions: in vivo, po, 1500 mg/kg, 120 h, tissue Plasma, route oral GAVAGE, dose level High, time 5 day, vehicle .5 % CMC
Tag: 1 if measured CHOLESTEROL is not below 60 mg/dL, 0 if it is.

Before answering, review these 2 worked examples.
Nc1nc2c(c(=O)[nH]1)N(C=O)C(CNc1ccc(C(=O)N[C@@H](CCC(=O)O)C(=O)O)cc1)CN2 (stereo not given in full) | 0
CCOC(=O)[C@H](CCc1ccccc1)N[C@@H](C)C(=O)N1CCC[C@H]1C(=O)O | 0

Problem: Could you verify whether the entry `CC(C)(Sc1cc(C(C)(C)C)c(O)c(C(C)(C)C)c1)Sc1cc(C(C)(C)C)c(O)c(C(C)(C)C)c1` shows CHOLESTEROL of no less than 60 mg/dL?
Solution: 1

Problem: Could you verify whether the entry `O=c1cc(-c2ccccc2)oc2ccc3ccccc3c12` shows CHOLESTEROL of no less than 60 mg/dL?
Solution: 1
